assay.remarks: in vitro
run.conditions: African green monkey, CC50 (mM/mL) Vero E6, Neutral red (Cytopathic effect/Toxicity)
quantity: CC50 (mM)
# unit: mM | format: bare number

Data request: Returns the measured CC50 for the input compound. Input: Nc1ncnn2c([C@@H]3O[C@H](CO)[C@@H](O)[C@H]3O)cc(/C=C/c3ccsc3)c12 [Compound 4.2k]
Data returned: 0.0031

Data request: Returns the measured CC50 for the input compound. Input: Nc1ncnn2c([C@@H]3O[C@H](CO)[C@@H](O)[C@H]3O)cc(/C=C/c3ccc(Cl)cc3)c12 [Compound 4.2f]
Data returned: 0.032

Data request: Returns the measured CC50 for the input compound. Input: Nc1ncnn2c([C@@H]3O[C@H](CO)[C@@H](O)[C@H]3O)cc(/C=C/c3cccc(F)c3)c12 [Compound 4.2g]
Data returned: 0.032

Data request: Returns the measured CC50 for the input compound. Input: Nc1ncnn2c([C@@H]3O[C@H](CO)[C@@H](O)[C@H]3O)cc(/C=C/c3cccs3)c12 [Compound 4.2j]
Data returned: 0.032

----------
assay.remarks: in vitro
run.conditions: African green monkey, CC50 (mM/mL) Vero E6, Visual (Cytopathic effect/Toxicity)
Assignment: determine reported CC50 for the given molecules.
# unit: mM | format: bare number

Data request: Returns the measured CC50 for the input molecule. Input: Nc1ncnn2c([C@@H]3O[C@H](CO)[C@@H](O)[C@H]3O)cc(/C=C/c3cccs3)c12
Data returned: 0.028

Data request: Returns the measured CC50 for the input molecule. Input: Nc1ncnn2c([C@@H]3O[C@H](CO)[C@@H](O)[C@H]3O)cc(/C=C/c3cccc(F)c3)c12
Data returned: 0.032

Data request: Returns the measured CC50 for the input molecule. Input: Nc1ncnn2c([C@@H]3O[C@H](CO)[C@@H](O)[C@H]3O)cc(/C=C/c3ccsc3)c12
Data returned: 0.0032

Data request: Returns the measured CC50 for the input molecule. Input: Nc1ncnn2c([C@@H]3O[C@H](CO)[C@@H](O)[C@H]3O)cc(/C=C/c3ccc(Cl)cc3)c12
Data returned: 0.032

----------
assay.remarks: in vitro
run.conditions: African green monkey, CC50 (mg/mL) Vero 76, Neutral red (Cytopathic effect/Toxicity)
quantity: CC50 (µg/mL)
# unit: µg/mL | format: bare number

Data request: Returns the measured CC50 for the input molecule. Input: Nc1ncnn2c([C@@H]3O[C@H](CO)[C@@H](O)[C@H]3O)cc(/C=C/c3ccc(C(F)(F)F)cc3)c12
Data returned: 32

Data request: Returns the measured CC50 for the input molecule. Input: C=Cc1cc([C@@H]2O[C@H](CO)[C@@H](O)[C@H]2O)n2ncnc(N)c12
Data returned: 4.7

Data request: Returns the measured CC50 for the input molecule. Input: Nc1ncnn2c([C@@H]3O[C@H](CO)[C@@H](O)[C@H]3O)cc(/C=C/c3ccc(F)cc3)c12
Data returned: 5.8

Data request: Returns the measured CC50 for the input molecule. Input: Nc1ncnn2c([C@@H]3O[C@H](CO)[C@@H](O)[C@H]3O)cc(/C=C/c3ccccn3)c12
Data returned: 0.32

----------
assay.remarks: in vitro
run.conditions: African green monkey, CC50 (mg/mL) Vero 76, Visual (Cytopathic effect/Toxicity)
Assignment: determine reported CC50 for the given compounds.
# unit: µg/mL | format: bare number

Data request: Returns the measured CC50 for the input compound. Input: Nc1ncnn2c([C@@H]3O[C@H](CO)[C@@H](O)[C@H]3O)cc(/C=C/c3ccc(C(F)(F)F)cc3)c12
Data returned: 32

Data request: Returns the measured CC50 for the input compound. Input: Nc1ncnn2c([C@@H]3O[C@H](CO)[C@@H](O)[C@H]3O)cc(/C=C/c3ccc(F)cc3)c12
Data returned: 3.2

Data request: Returns the measured CC50 for the input compound. Input: Nc1ncnn2c([C@@H]3O[C@H](CO)[C@@H](O)[C@H]3O)cc(/C=C/c3ccccn3)c12
Data returned: 0.32

Data request: Returns the measured CC50 for the input compound. Input: C=Cc1cc([C@@H]2O[C@H](CO)[C@@H](O)[C@H]2O)n2ncnc(N)c12
Data returned: 3.2

----------
Assignment: determine reported CC50 for the given compounds.
assay.remarks: in vitro
run.conditions: African green monkey, CC50 (mM/mL) Vero E6, Neutral red (Cytopathic effect/Toxicity)

Data request: Returns the measured CC50 for the input compound. Input: Nc1ncnn2c([C@@H]3O[C@H](CO)[C@@H](O)[C@H]3O)cc(/C=C/C3CC3)c12
Data returned: > 0.1 mM

Data request: Returns the measured CC50 for the input compound. Input: Nc1ncnn2c([C@@H]3O[C@H](CO)[C@@H](O)[C@H]3O)cc(/C=C/C3CCCCC3)c12
Data returned: > 0.1 mM

Data request: Returns the measured CC50 for the input compound. Input: CCC/C=C/c1cc([C@@H]2O[C@H](CO)[C@@H](O)[C@H]2O)n2ncnc(N)c12
Data returned: > 0.1 mM

Data request: Returns the measured CC50 for the input compound. Input: Nc1ncnn2c([C@@H]3O[C@H](CO)[C@@H](O)[C@H]3O)cc(/C=C/C3CCCC3)c12
Data returned: > 0.1 mM
